assay-system: σ1 receptor (Rattus norvegicus, UniProt Q9R0C9)
Construct: Rat liver membrane homogenates (~300 μg protein) were diluted with 50 mM Tris–HCl buffer; from tissue; host or cells: rat liver membrane homogenates
Sequence (Q9R0C9 whole entry): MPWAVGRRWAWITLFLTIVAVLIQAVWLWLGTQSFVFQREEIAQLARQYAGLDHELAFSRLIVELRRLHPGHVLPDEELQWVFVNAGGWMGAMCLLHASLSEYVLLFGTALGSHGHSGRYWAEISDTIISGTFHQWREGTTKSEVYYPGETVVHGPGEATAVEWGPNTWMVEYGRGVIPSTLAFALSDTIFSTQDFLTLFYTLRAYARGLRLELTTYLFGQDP
assay-remarks: Sigma receptor binding, σ1 sites, [3H](+)-pentazocine competition in rat liver membrane homogenates
run-conditions: HCl salts tested; rat liver membrane homogenates
assay-metric: Ki (nM)

# compound, assay-system, Ki / nM
data = [
    ("O=C(c1ccc(F)cc1)C1CCN(Cc2ccc(F)cc2)CC1 [Compound 7a]", "σ1 receptor (Rattus norvegicus, UniProt Q9R0C9)", 2.96),
]

(a) OC(c1ccc(F)cc1)C1CCN(Cc2ccc(Br)cc2)CC1 (centres unmarked) [Compound 8e]
(b) OC(c1ccc(F)cc1)C1CCN(Cc2ccc(Cl)cc2)CC1 (centres unmarked) [Compound 8c]
Which entry has a larger number for Ki, a or b ? Record your answer as the label of the chosen record. a
(a: 5.22 nM, b: 2.49 nM)

* * *

Measured Ki accompanies every entry in the list below.
assay-system: σ2 receptor (Rattus norvegicus, UniProt Q5U3Y7)
Construct: Rat liver membrane homogenates (~300 μg protein) were diluted with 50 mM Tris–HCl buffer; from tissue; host or cells: rat liver membrane homogenates
assay-remarks: Sigma receptor binding, σ2 sites, [3H]DTG competition with σ1 sites masked by (+)-pentazocine, rat liver membrane homogenates
run-conditions: HCl salts tested

Examples from the recorded data:
# molecule, Ki
rows = [
    ("O=C(c1ccc(F)cc1)C1CCN(Cc2ccc(F)cc2)CC1", "222 nM"),
    ("O=C(c1ccc(F)cc1)C1CCN(Cc2ccccc2[N+](=O)[O-])CC1", "> 854 nM"),
    ("OC(c1ccc(F)cc1)C1CCN(Cc2ccc(Cl)cc2)CC1 (stereo not drawn)", "> 854 nM"),
    ("O=[N+]([O-])c1ccccc1CN1CCC(C(NCc2cccc(Br)c2)c2ccc(F)cc2)CC1 (stereo not drawn)", "> 854 nM"),
]

Tell us which Ki value is on record for "O=C(c1ccc(F)cc1)C1CCN(Cc2ccc(Cl)c(Cl)c2)CC1" > 854 nM

Specify Ki for Cc1ccc(CN2CCC(C(O)c3ccc(F)cc3)CC2)cc1 (stereo not drawn) and stop. > 854 nM

Give the reported Ki for this molecule. OC(c1ccc(F)cc1)C1CCN(Cc2ccc(F)cc2)CC1 (stereo not drawn) > 854 nM

Give the reported Ki for this molecule. O=[N+]([O-])c1ccccc1CN1CCC(C(O)c2ccc(F)cc2)CC1 (stereo not drawn) > 854 nM

Complete the entry with Ki for "O=C(c1ccc(F)cc1)C1CCN(Cc2ccc(Cl)cc2)CC1" 554 nM

* * *

assay-system: σ2 receptor (Rattus norvegicus)
Construct: Rat liver membrane homogenates (~300 μg protein) were diluted with 50 mM Tris–HCl buffer; from tissue; host or cells: rat liver membrane homogenates
Sequence (Q5U3Y7 1-176): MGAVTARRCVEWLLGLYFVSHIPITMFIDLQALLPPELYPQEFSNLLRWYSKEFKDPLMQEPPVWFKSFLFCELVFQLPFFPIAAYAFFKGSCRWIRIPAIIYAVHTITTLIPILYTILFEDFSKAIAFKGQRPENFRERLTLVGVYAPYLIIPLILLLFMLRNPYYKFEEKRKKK
assay-remarks: Sigma receptor binding, σ2 sites, [3H]DTG competition with σ1 sites masked by (+)-pentazocine, rat liver membrane homogenates
run-conditions: HCl salts tested
assay-metric: Ki

// worked examples, Ki included
# compound, Ki
records = [
    ("O=C(c1ccc(F)cc1)C1CCN(Cc2ccc(Br)cc2)CC1", "> 854 nM"),
    ("OC(c1ccc(F)cc1)C1CCN(Cc2ccc(Br)cc2)CC1 (centres unmarked)", "> 854 nM"),
    ("OC(c1ccc(F)cc1)C1CCN(Cc2ccc(Cl)c(Cl)c2)CC1 (centres unmarked)", "> 854 nM"),
    ("Fc1ccc(C(NCc2cccc(Br)c2)C2CCN(Cc3ccc(Br)cc3)CC2)cc1 (centres unmarked)", "> 854 nM"),
]

Note down Ki recorded for "Cc1ccc(CN2CCC(C(=O)c3ccc(F)cc3)CC2)cc1" 151 nM

* * *

assay-system: σ1 receptor (Rattus norvegicus)
Construct: Rat liver membrane homogenates (~300 μg protein) were diluted with 50 mM Tris–HCl buffer; from tissue; host or cells: rat liver membrane homogenates
assay-remarks: Sigma receptor binding, σ1 sites, [3H](+)-pentazocine competition in rat liver membrane homogenates
run-conditions: HCl salts tested; rat liver membrane homogenates
assay-metric: Ki (nM)

Solved entries:
# compound, Ki [nM]
records = [
    ("O=[N+]([O-])c1ccccc1CN1CCC(C(O)c2ccc(F)cc2)CC1 (centres unmarked) [Compound 8d]", 527),
    ("Fc1ccc(C(NCc2cccc(Br)c2)C2CCN(Cc3ccc(Br)cc3)CC2)cc1 (centres unmarked) [Compound 9e]", 2.95),
    ("OC(c1ccc(F)cc1)C1CCN(Cc2ccc(F)cc2)CC1 (centres unmarked) [Compound 8a]", 1.41),
    ("Cc1ccc(CN2CCC(C(O)c3ccc(F)cc3)CC2)cc1 (centres unmarked) [Compound 8f]", 1.45),
    ("Cc1ccc(CN2CCC(C(=O)c3ccc(F)cc3)CC2)cc1 [Compound 7f]", 11.6),
]

(A) O=C(c1ccc(F)cc1)C1CCN(Cc2ccc(Cl)cc2)CC1 [Compound 7c]
(B) O=C(c1ccc(F)cc1)C1CCN(Cc2ccc(Br)cc2)CC1 [Compound 7e]
I would appreciate it if you could say which entry, A or B , has the lower Ki value. Response format: the label of the selected entry. B
